Values from ChEMBL document CHEMBL3430912

Assay: GSK_TCAKS: pIC50 HepG2 human cell line viability assay using luminiscence. […] Seeding density was checked to ensure that new mono-layers were not more than 50% confluent at the time of harvesting. Cell suspension was added to 500 mL of the same medium at a final density of 1.2 * 10^5 cells/mL. This cell suspension was dispensed (25 uL, 3000 cells per well) into 384-well clear-bottom plates using a Multidrop Combi dispenser. Prior to addition of the cell suspension, the screening compounds (250 nL) were pre-dispensed into the plates with an Echo liquid handler. Plates were incubated for 48 h at 37C, 5% CO2. After incubation, plates equilibrated at room temperature for 30 min before proceeding to develop the luminescent signal. The signal developer, CellTiter-Glo Reagent, was allowed to equilibrate at room temperature for 30 min and added to the plates (25uL per well) using a Multidrop Combi dispenser. Plates were left for 10 min at room temperature for stabilization and then read using a ViewLux.
Format: toxicity, cell-based
IC50 at 48 h values for the compounds below.
QUANTITY_NAME: IC50 at 48 h

compound=O=C(CN(Cc1ccccn1)Cc1ccccn1)NCc1csc(-c2cccs2)n1 measured_result="> 100 µM"
compound="CC(c1ccc2c(c1)CCCC2)N(C)c1ncc2c(N)nc(N)nc2n1 (centres undefined)" measured_result="50.1 µM"
compound="Cc1ccc2ccc(C(Nc3ccccn3)c3cccnc3)c(O)c2n1 (centres undefined)" measured_result="20 µM"
compound=O=c1cc(NCCCNCc2cc(C(F)(F)F)cs2)[nH]c2ccccc12 measured_result="63.1 µM"
compound=O=C(NCCc1csc(-c2cccc(F)c2)n1)c1ccco1 measured_result="> 100 µM"
compound="CC(Cn1ccnc1)NC(=O)COc1ccc(Cl)c(Cl)c1 (centres undefined)" measured_result="> 100 µM"
compound=CCCc1cc(C(=O)Nc2ncc(-c3cccc(Br)c3)n2C)[nH]n1 measured_result="> 100 µM"
compound=Cc1nn(-c2ccccc2)nc1CNC(=O)CN(Cc1ccccn1)Cc1ccccn1 measured_result="> 126 µM"
compound="CC(c1ccccn1)N(C)Cc1nc2ccccc2n1C(C)C (centres undefined)" measured_result="25.1 µM"
compound=O=C(CN(Cc1ccccn1)Cc1ccccn1)NC1Cc2ccccc2C1 measured_result="> 158 µM"
compound="CN(CC1CCCO1)S(=O)(=O)c1ccc(C(=O)Nc2nc(-c3ccccn3)cs2)cc1 (centres undefined)" measured_result="63.1 µM"
compound=O=C1c2cnc(N3CCCC3)nc2CN1c1ccc2c(c1)OCO2 measured_result="> 100 µM"
compound=COc1ccc2ncc(=O)n(CCN3CCC(NCc4ccc(-c5cccs5)cc4)CC3)c2n1 measured_result="12.6 µM"
compound="COc1ccc(CN2C(=O)C(O)(CC(=O)c3ccncc3)c3cc(Br)ccc32)cc1OC (centres undefined)" measured_result="39.8 µM"
compound=N#Cc1cccc(CN2CCC(N(Cc3cccnc3)C(=O)c3cc(F)c(F)cc3F)CC2)c1 measured_result="> 100 µM"
compound=O=C1OCc2ccc(Nc3nccc(-c4cnn5ncccc45)n3)cc21 measured_result="> 100 µM"
compound=COc1ccccc1CNc1cc(C2CC2)nc(-c2nccn2C)n1 measured_result="20 µM"
compound=CN(C)CCN(C)Cc1ccc(F)cc1NS(=O)(=O)c1ccc(Cl)c(Cl)c1 measured_result="39.8 µM"
compound="COc1ccc(C2CC(c3ccc(NS(C)(=O)=O)cc3)=NN2C(=O)c2cccs2)cc1OC (centres undefined)" measured_result="> 100 µM"
compound=CC(C)(C)CC(=O)NCCc1csc(-c2ccc(F)cc2)n1 measured_result="> 100 µM"
compound=Cn1nc(-c2ccc(NC(=O)Cc3ccccc3Cl)cc2)c2c(N)ncnc21 measured_result="> 100 µM"
compound="Cn1nccc1-c1cc(OC(CN)c2ccccc2)cnc1-c1ccco1 (centres undefined)" measured_result="50.1 µM"
compound=O=C(NCCc1ccccc1Cl)c1cccn1-c1cccnc1 measured_result="> 100 µM"
compound=CC(=O)NCCNc1cc(-c2ccnc(Nc3cccc(Cl)c3)n2)ccn1 measured_result="25.1 µM"
compound="CC(c1cc(Cl)cc(Cl)c1)N(C)c1ncc2c(N)nc(N)nc2n1 (centres undefined)" measured_result="63.1 µM"
compound=Cc1ccccc1NS(=O)(=O)c1ccc2[nH]cc(C(=O)NC3CCCC3)c(=O)c2c1 measured_result="25.1 µM"
compound=CCN(CC)c1nc(N(C)C)nc2c1CN(Cc1ccccc1)CC2 measured_result="63.1 µM"
compound=O=C(NNC(=O)c1ccccn1)c1ccc(-c2ccccc2)cc1 measured_result="> 100 µM"
compound="CNC(=O)C1Cc2ccccc2N1C(=O)COc1cccc(OC)c1 (centres undefined)" measured_result="> 100 µM"
compound=O=C(O)[C@H]1C[C@@H]1c1ccc(-c2ccc(CN(CCc3ccccn3)C(=O)C3CCC3)cc2)cc1 measured_result="> 100 µM"
compound=N#Cc1cccc(Cc2cc(Nc3cc(C4CC4)[nH]n3)nc(N3CC[C@H]3C(N)=O)n2)c1 measured_result="> 100 µM"
compound=CCCNC(=O)Nc1cccc(-c2nc3ncccc3o2)c1 measured_result="> 100 µM"
compound="COc1ccc2ncc(=O)n(CCN3CCOC(CNCc4ccc(C(F)(F)F)cc4F)C3)c2n1 (centres undefined)" measured_result="> 100 µM"
compound="Cc1[nH]nc(-c2nc3ccccc3[nH]2)c1C(=O)NC1CCCNC1 (centres undefined)" measured_result="> 100 µM"
